System: ACHN renal
testDescription: NCI-60 one-dose screen, 48 h
conditionInfo: 10 µM unless noted
This is part of a sample that, as a whole, favours compounds with a hit. Of some 83,000 tested, about 20% had one in any assay. Activity calls are given as the source filed them. Rule for the calls: active = growth percent below 10; inactive = the rest.
In this exercise, the only acceptable responses are label 1 = active, label 0 = inactive

Solved entries (count: 4):
compound: Cc1c(NCC(=O)Nc2nc3ccccc3[nH]2)c(=O)n(-c2ccccc2)n1C
answerLabel: label 0
//
compound: Oc1ccc2ccccc2c1C1NN=C(c2ccccc2)S1 (stereo not given)
answerLabel: label 0
//
compound: COc1ccc(/C=N/OCC(O)CNCc2ccccc2)cc1OC1CCCC1 (stereo not given)
answerLabel: label 0
//
compound: CCC(C)[C@H]1O[C@]2(CC[C@@H]1C)C[C@@H]1C[C@@H](C/C=C(\C)[C@@H](OC3C[C@H](OC)C(O[C@H]4C[C@H](OC)[C@@H](O)[C@H](C)O4)[C@H](C)O3)[C@@H](C)/C=C/C=C3\CO[C@@H]4[C@H](O)C(C)=C[C@@H](C(=O)O1)[C@]34O)O2 (stereo not given in full)
answerLabel: label 1

Recorded test call requested for "COc1cc(C(=O)N(C(C)C)C2CCCCC2)cc(OC)c1OC"
label 0

Data provenance is PubChem BioAssay (NCI).
